Just for reference, paper PMC5540273 is where these values come from.

- Tested on: p38-alpha;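 further: kd values determined as follow-up on hits from a single-replicate KINOMEscan panel screen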
- Construct: gene MAPK14
Kd reference
readout-name: Kd (nM)

- OCCCNc1nccc(-c2c(-c3cccc(C(F)(F)F)c3)nn3cc(C(F)(F)F)ccc23)n1 [GW630813]: 1300
- Nc1nc(-c2ccccc2F)c(-c2ccnc3ccccc23)s1 [GW560459]: 240

---

- Test system: RIPK2;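 further: KINOMEscan kinase panel screen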
- stated-conditions: concentration: 1 μM, replicates: in singlicate; n = 1
readout-name: %Inh (%)

* CCS(=O)(=O)c1ccc(OC)c(Nc2ncc(-c3ccc(F)cc3)o2)c1.Cl | 19
* COC(=O)c1c(-c2ccccc2)c2cc(C)ccc2c(=O)n1Cc1ccccc1 | 0
* COc1ccc(-c2cc3c(C)nc(N)nc3n([C@H]3CC[C@H](O)CC3)c2=O)cn1 | 0
* Cl.NS(=O)(=O)c1cccc(Nc2cc(-c3ccc(F)cc3)n[nH]2)c1 | 0
* FC(F)(F)c1ccc(-c2ncn(CCCN3CCOCC3)c2-c2ccncc2)cc1 | 0
* COc1ccc(CNC(=O)NC2CCN(c3ccnc(Nc4ccc(F)cc4)n3)C2)cc1 (stereo not drawn) | 19
* CCc1nc(-c2cccc(C)c2)c(-c2ccncc2)s1 | 76
* Cl.c1ccc(Cn2cnc3cc(Nc4ncnc5ccccc45)ccc32)cc1 | 0
* Cc1nc(N(C)[C@H]2CN(C(=O)CC#N)CC[C@H]2C)c2cc[nH]c2n1 | 0
* Cc1nnc(-c2ccc3ncn(-c4ccc(S(C)=O)cc4)c3c2)o1 (stereo not drawn) | 19
* CCCC(=O)Nc1n[nH]c2ncc(-c3cccc4ccccc34)cc12 | 28
* O=c1cc(N2CCOCC2)nc2n(Cc3ccc(F)c(Cl)c3)ccn12 | 0
* COc1cc2ncn(-c3cc(OCCCc4ccccc4)c(C(N)=O)s3)c2cc1OC | 20
* COc1cc(Nc2nccc(N3CCC(NC(=O)C4COc5ccccc5O4)C3)n2)cc(OC)c1OC (stereo not drawn) | 0
* COC(=O)c1c(-c2ccccc2)c2cc(Br)ccc2c(=O)n1Cc1ccc(S(C)(=O)=O)cc1 | 0
* COc1cccc(C2=C(Nc3cccc(C(=O)O)c3)C(=O)NC2=O)c1 | 7
* Cc1ccccc1COc1cc(-n2cnc3cc(Cl)ccc32)sc1C(N)=O | 12
* COc1cc(Nc2nccc(N3CCC(NC(=O)C(C)c4ccc(Cl)cc4)C3)n2)cc(OC)c1OC (stereo not drawn) | 0
